Source listed as paper PMC5540273.

Test system: RSK1(Kin.Dom.1-N-terminal)
Construct: gene RPS6KA1
Settings: concentration: 1 μM, replicates: in singlicate; n = 1;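 further: KINOMEscan kinase panel screen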

{"MOLECULE": "CC(C)c1nc(-c2cccc(NS(=O)(=O)c3c(F)cccc3F)c2)c(-c2ccnc(Nc3ccc(N4CCOCC4)nc3)n2)s1.Cl [GSK1723980]", "TGT": "RSK1(Kin.Dom.1-N-terminal)", "%Inh, %": 83}
{"MOLECULE": "COc1ccc(NC(=O)c2ccoc2)cc1-c1ccc(C(=O)NCC2CC2)cc1 [GW810437]", "TGT": "RSK1(Kin.Dom.1-N-terminal)", "%Inh, %": 0}
{"MOLECULE": "Nc1cccc(-c2ccc3c(N)n[nH]c3c2)c1 [GSK2193613]", "TGT": "RSK1(Kin.Dom.1-N-terminal)", "%Inh, %": 13}
{"MOLECULE": "COC(=O)Nc1nc2ccc(Oc3ccc(NC(=O)Nc4cc(C(F)(F)F)ccc4F)cc3)cc2[nH]1.Cl [GW654607]", "TGT": "RSK1(Kin.Dom.1-N-terminal)", "%Inh, %": 0}
{"MOLECULE": "COc1cccc(NC(=O)NCCNc2ccnc(Nc3ccc(F)cc3)n2)c1 [GSK1379879]", "TGT": "RSK1(Kin.Dom.1-N-terminal)", "%Inh, %": 18}
{"MOLECULE": "CN(C)CCOc1ccc(-c2cc(-c3ccc(Cl)c(O)c3)c(-c3ccncc3)[nH]2)cc1.Cl.Cl [SB-684387]", "TGT": "RSK1(Kin.Dom.1-N-terminal)", "%Inh, %": 10}
{"MOLECULE": "COc1cc(Nc2ccnc3cc(-c4ccncc4)ccc23)cc(OC)c1OC.Cl [GW494610]", "TGT": "RSK1(Kin.Dom.1-N-terminal)", "%Inh, %": 0}

----------
System: MERTK
Settings: concentration: 1 μM, replicates: in singlicate; n = 1
Response field label: string, one of TRUE (%Inh strictly below 30%) or FALSE.

{"MOLECULAR_STRING": "O=C(O)C(F)(F)F.O=c1[nH]ccc2nc(N[C@@H]3CCNC3)nc(Nc3ccc4c(c3)S(=O)(=O)CC4)c12", "CLASS_NAME": "FALSE"}
{"MOLECULAR_STRING": "CN(C)c1ncnc2nc[nH]c12", "CLASS_NAME": "TRUE"}
{"MOLECULAR_STRING": "O=C(Nc1n[nH]c2nc(-c3ccccc3)ccc12)C1CC1", "CLASS_NAME": "TRUE"}
{"MOLECULAR_STRING": "CCn1cnc2c(NCc3ccccc3)ncnc21", "CLASS_NAME": "TRUE"}
{"MOLECULAR_STRING": "Cl.N#CCc1ccc(Nc2nccc(Nc3ccc(Oc4ccccc4)cc3)n2)cc1", "CLASS_NAME": "TRUE"}
{"MOLECULAR_STRING": "COc1ccc(NC(=O)c2ccoc2)cc1-c1ccc(C(=O)NCC2CC2)cc1", "CLASS_NAME": "TRUE"}
{"MOLECULAR_STRING": "N#Cc1cnc2cc(-c3cnc(CNCCN4CCOCC4)s3)ccc2c1Nc1ccc(Oc2ccccc2)cc1", "CLASS_NAME": "FALSE"}
{"MOLECULAR_STRING": "COc1ccc(C)c(Nc2ccnc(Nc3ccc(-c4cnc[nH]4)cc3)n2)c1.Cl", "CLASS_NAME": "TRUE"}
{"MOLECULAR_STRING": "COC(=O)Nc1nc2cc(Oc3ccc(NC(=O)Nc4cccc(SC)c4)cc3)ccc2[nH]1.Cl", "CLASS_NAME": "FALSE"}
{"MOLECULAR_STRING": "COc1cc(Nc2nccc(N3CCC(NS(=O)(=O)c4ccc(NC(C)=O)cc4)CC3)n2)cc(OC)c1OC", "CLASS_NAME": "FALSE"}
{"MOLECULAR_STRING": "Fc1cc(Cl)ccc1Nc1ccnc2cc(-c3ccc(CN4CCSCC4)o3)ccc12", "CLASS_NAME": "FALSE"}
{"MOLECULAR_STRING": "COC(=O)Nc1nc2ccc(Oc3ccc(NC(=O)Nc4cc(C(F)(F)F)ccc4F)cc3)cc2[nH]1.Cl", "CLASS_NAME": "FALSE"}
{"MOLECULAR_STRING": "Cc1ccc(NC(=O)c2cccc(N3CCCCC3)c2)cc1-c1ccc(C(=O)NCC2CC2)cc1", "CLASS_NAME": "TRUE"}
{"MOLECULAR_STRING": "O=C(O)C(F)(F)F.O=c1[nH]ccc2nc(N[C@@H]3CCNC3)nc(Nc3cc(Cl)cc(Cl)c3)c12", "CLASS_NAME": "FALSE"}
{"MOLECULAR_STRING": "Cc1cc(-c2ccnc(Nc3cccc(C#N)c3)n2)cc(C)c1O", "CLASS_NAME": "FALSE"}
{"MOLECULAR_STRING": "Cc1ccc(NC(=O)c2ccc(Cl)c(Cl)c2)cc1-c1ccc(C(=O)Nc2ccncc2)cc1", "CLASS_NAME": "FALSE"}
{"MOLECULAR_STRING": "O=C(Nc1n[nH]c2nc(-c3ccccc3O)ccc12)C1CC1", "CLASS_NAME": "TRUE"}
{"MOLECULAR_STRING": "O=C(Nc1n[nH]c2cc(-c3cccs3)ccc12)C1CC1", "CLASS_NAME": "TRUE"}

----------
Test system: PRKCQ
Details: concentration: 1 μM, replicates: in singlicate; n = 1
Each entry below carries its recorded %Inh.

{"MOLECULE": "CN(C)CCOc1ccc(-c2cc(-c3ccc(Cl)c(O)c3)c(-c3ccncc3)[nH]2)cc1.Cl.Cl [SB-684387]", "%Inh (%)": 3}
{"MOLECULE": "COc1ccc(C2=C(Nc3cccc(O)c3)C(=O)NC2=O)cc1 [SB-390766]", "%Inh (%)": 0}
{"MOLECULE": "Nc1ncnc2scc(-c3ccc(NC(=O)Cc4cc(F)ccc4F)cc3)c12.O=C(O)C(F)(F)F [SB-731254-M]", "%Inh (%)": 3}
{"MOLECULE": "Fc1cc(Cl)ccc1Nc1ccnc2cc(-c3ccc(CN4CCOCC4)o3)ccc12 [GW560109]", "%Inh (%)": 31}
{"MOLECULE": "CCNc1nccc(-c2c(-c3ccc(F)cc3)ncn2C2CCN(C)CC2)n1", "%Inh (%)": 0}
{"MOLECULE": "Cl.O=C(Nc1ccc(Oc2ccc3[nH]c(NC(=O)c4ccco4)nc3c2)cc1)Nc1cc(C(F)(F)F)ccc1F [GW683134]", "%Inh (%)": 9}
{"MOLECULE": "Nc1ncc(-c2cn[nH]c2)c2scc(-c3ccc4c(c3)CCN4C(=O)Cc3ccccc3)c12 [GSK2593067]", "%Inh (%)": 17}
{"MOLECULE": "Cc1ccc(NC(=O)c2cccc(N3CCCCC3)c2)cc1-c1ccc(C(=O)NCC2CC2)cc1 [GSK1917008]", "%Inh (%)": 0}
{"MOLECULE": "COc1cccc(CC(=O)N2CCc3cc(-c4cn(C)c5ncnc(N)c45)ccc32)c1 [GSK2608899]", "%Inh (%)": 0}
{"MOLECULE": "N#CC1(c2cccc(C(=O)Nc3cccc(Oc4ccc5nc(NC(=O)C6CC6)sc5n4)c3)c2)CC1", "%Inh (%)": 40}
{"MOLECULE": "Fc1cc(Cl)ccc1Nc1ccnc2cc(-c3ccc(CN4CCSCC4)o3)ccc12 [GW560106]", "%Inh (%)": 0}
{"MOLECULE": "O=C(Nc1c(F)cccc1F)c1cc(C(=O)c2ccccc2F)c[nH]1 [GSK1326180]", "%Inh (%)": 20}
{"MOLECULE": "CC(=O)Nc1cn2nc(Oc3cccc(NC(=O)c4cccc(C(F)(F)F)c4)c3)ccc2n1", "%Inh (%)": 0}
{"MOLECULE": "CSc1ccc(NC2=C(c3ccc(Cl)cc3)C(=O)NC2=O)cc1 [SB-317658]", "%Inh (%)": 0}
{"MOLECULE": "Cl.N#CCc1ccc(Nc2nccc(Nc3ccc(Oc4ccccc4)cc3)n2)cc1 [GW639905]", "%Inh (%)": 0}
{"MOLECULE": "CS(=O)(=O)c1cccc(CNc2nc(Nc3ccc4c(c3)CCC(=O)N4)ncc2C(F)(F)F)c1", "%Inh (%)": 0}
{"MOLECULE": "CN(C)c1ncnc2nc[nH]c12 [SKF-31736]", "%Inh (%)": 0}
{"MOLECULE": "Cc1ccc(-c2ccc3occ(-c4ccc(S(C)=O)cc4)c3c2)nn1 (stereo not drawn)", "%Inh (%)": 13}

----------
Tested on: RSK2(Kin.Dom.2-C-terminal)
Construct: gene RPS6KA3
Details: concentration: 1 μM, replicates: in singlicate; n = 1
Response field label: string, one of condition met (%Inh strictly below 20%) or condition not met.

{"COMPOUND": "O=C1NC(=O)C(c2ccccc2Cl)=C1Nc1cccc(Cl)c1", "CLASS_NAME": "condition not met"}
{"COMPOUND": "CCn1c(-c2nonc2N)nc2c(-c3ccccc3)ncc(OCCCN)c21.O=C(O)C(F)(F)F.O=C(O)C(F)(F)F", "CLASS_NAME": "condition met"}
{"COMPOUND": "COc1ccc(C2=C(Nc3cccc(O)c3)C(=O)NC2=O)cc1", "CLASS_NAME": "condition not met"}
{"COMPOUND": "COc1cccc(C2=C(Nc3cccc(O)c3)C(=O)NC2=O)c1", "CLASS_NAME": "condition not met"}
{"COMPOUND": "Cn1cc(-c2ccc3c(c2)CCN3C(=O)Cc2cc(F)cc(F)c2F)c2c(N)ncnc21", "CLASS_NAME": "condition met"}
{"COMPOUND": "CC(C)c1nc(-c2ccc(F)c(NS(=O)(=O)c3c(F)cccc3F)c2)c(-c2ccnc(Nc3ccc(N4CCOCC4)nc3)n2)s1", "CLASS_NAME": "condition not met"}
{"COMPOUND": "NCCC(NC(=O)c1cc(Br)c(-c2ccnc3[nH]ccc23)s1)c1ccccc1.O=C(O)C(F)(F)F.O=C(O)C(F)(F)F (centres unmarked)", "CLASS_NAME": "condition met"}
